Test system: Leucine-rich repeat serine/threonine-protein kinase 2 (Homo sapiens), Q5S007 [G2019S]
Sequence (Q5S007 whole entry G2019S): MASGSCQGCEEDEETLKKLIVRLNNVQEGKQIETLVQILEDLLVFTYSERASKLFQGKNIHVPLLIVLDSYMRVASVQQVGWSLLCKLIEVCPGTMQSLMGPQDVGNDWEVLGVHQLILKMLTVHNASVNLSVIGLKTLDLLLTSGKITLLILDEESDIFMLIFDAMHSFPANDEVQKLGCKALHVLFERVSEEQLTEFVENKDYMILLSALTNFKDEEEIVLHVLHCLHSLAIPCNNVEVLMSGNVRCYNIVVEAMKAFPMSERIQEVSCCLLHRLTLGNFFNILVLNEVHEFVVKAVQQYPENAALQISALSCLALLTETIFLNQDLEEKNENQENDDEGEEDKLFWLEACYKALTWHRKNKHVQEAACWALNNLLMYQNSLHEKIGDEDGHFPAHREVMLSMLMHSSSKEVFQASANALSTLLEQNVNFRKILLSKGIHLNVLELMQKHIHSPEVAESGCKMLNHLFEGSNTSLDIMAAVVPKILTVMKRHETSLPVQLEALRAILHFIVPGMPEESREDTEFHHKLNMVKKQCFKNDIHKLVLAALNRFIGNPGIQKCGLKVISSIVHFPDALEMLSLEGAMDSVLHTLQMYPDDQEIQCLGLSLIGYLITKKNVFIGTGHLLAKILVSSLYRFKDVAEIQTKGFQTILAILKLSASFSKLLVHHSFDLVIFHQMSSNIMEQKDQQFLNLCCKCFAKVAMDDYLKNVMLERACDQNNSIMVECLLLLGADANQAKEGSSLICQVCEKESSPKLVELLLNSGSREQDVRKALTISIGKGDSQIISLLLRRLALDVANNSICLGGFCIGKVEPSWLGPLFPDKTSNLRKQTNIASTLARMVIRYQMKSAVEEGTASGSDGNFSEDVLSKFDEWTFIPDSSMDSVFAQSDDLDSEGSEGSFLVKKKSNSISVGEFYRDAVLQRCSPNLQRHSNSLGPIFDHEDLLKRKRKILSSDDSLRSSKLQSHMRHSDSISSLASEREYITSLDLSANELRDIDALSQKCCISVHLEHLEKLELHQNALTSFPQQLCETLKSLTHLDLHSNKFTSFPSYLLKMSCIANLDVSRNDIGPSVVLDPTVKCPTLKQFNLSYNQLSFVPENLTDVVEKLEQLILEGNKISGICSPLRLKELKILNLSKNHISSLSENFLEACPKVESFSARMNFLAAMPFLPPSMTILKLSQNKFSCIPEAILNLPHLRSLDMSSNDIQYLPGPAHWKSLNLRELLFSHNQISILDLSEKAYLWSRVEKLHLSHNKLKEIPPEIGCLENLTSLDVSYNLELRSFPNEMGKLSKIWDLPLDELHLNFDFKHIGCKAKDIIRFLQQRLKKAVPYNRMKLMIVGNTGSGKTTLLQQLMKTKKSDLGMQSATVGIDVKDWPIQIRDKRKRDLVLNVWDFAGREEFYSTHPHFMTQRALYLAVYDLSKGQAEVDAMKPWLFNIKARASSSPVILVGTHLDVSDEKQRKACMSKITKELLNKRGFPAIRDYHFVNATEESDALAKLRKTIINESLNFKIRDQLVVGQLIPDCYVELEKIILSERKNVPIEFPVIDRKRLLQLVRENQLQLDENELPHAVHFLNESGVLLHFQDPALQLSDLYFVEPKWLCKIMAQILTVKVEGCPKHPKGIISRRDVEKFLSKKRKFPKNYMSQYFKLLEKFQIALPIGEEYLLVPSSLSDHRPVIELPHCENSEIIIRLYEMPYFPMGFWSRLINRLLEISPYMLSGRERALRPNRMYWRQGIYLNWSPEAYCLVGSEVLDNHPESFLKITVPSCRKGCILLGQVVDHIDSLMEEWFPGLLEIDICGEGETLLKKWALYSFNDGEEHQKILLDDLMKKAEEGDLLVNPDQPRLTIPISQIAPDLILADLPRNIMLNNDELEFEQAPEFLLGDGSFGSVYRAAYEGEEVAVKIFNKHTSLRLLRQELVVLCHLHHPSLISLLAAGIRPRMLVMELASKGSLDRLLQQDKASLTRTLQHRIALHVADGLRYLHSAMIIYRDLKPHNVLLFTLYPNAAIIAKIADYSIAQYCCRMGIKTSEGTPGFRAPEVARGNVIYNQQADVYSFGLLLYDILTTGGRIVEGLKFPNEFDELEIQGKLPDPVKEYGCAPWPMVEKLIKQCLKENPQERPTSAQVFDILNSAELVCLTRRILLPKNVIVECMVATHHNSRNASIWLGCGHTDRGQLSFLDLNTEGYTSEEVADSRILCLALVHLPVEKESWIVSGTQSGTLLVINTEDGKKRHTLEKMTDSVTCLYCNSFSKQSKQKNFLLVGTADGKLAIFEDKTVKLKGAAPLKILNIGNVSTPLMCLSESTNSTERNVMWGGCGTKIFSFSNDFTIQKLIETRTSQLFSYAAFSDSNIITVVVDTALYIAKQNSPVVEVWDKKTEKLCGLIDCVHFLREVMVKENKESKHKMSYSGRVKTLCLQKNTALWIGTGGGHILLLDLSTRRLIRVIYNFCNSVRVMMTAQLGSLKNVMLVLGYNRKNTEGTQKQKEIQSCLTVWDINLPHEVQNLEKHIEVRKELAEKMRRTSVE
Conditions: at 1 µM
So basically: inhibition at 10% or higher? That is true (1). Lower than 10%? That is false (0).

Solved entries:
• COc1c(C(N)=O)cc(-c2ccc(Cl)cc2)cc1-c1ccc(S(N)(=O)=O)cc1 = false (0)
• CN(c1ccc(NC(=O)NCCN2CCOCC2)cc1)c1ccnc(Nc2ccc(CS(C)(=O)=O)cc2)n1 = true (1)
• Fc1ccc(Nc2nccc(-c3c(-c4ccc(C(F)(F)F)cc4)nn4ncccc34)n2)cc1F = true (1)
• Fc1cccc(COc2ccc(Nc3ncncc3C#Cc3ccccc3)cc2Cl)c1 = false (0)
• c1ccc(-c2n[nH]cc2-c2ccnc(-c3ccc(OCCn4ccnc4)cc3)c2)nc1 = true (1)
• NC(=O)c1ccc2c(-c3ccnc(NCCCO)n3)c(-c3ccc(F)cc3)nn2c1 = false (0)
• O=C(Nc1n[nH]c2nnc(-c3cccnc3)cc12)C1CC1 = false (0)
• Cc1ccc(-c2cc3c(NC(=O)C4CC4)ncnc3o2)cc1 = true (1)

Query :: Confirm if inhibition reported for the molecule COc1cccc(-n2ncc3c(N/N=C/c4ccc(C(=O)NCCN(C)C)cc4)ncnc32)c1 is 10% or above.
Result :: true (1)

Query :: Is reported inhibition greater than or equal to 10% here: Cc1nnc(-c2cccc(-c3ccc(C(=O)NCC4CC4)cc3)c2)o1
Result :: false (0)

Provenance of the data: ChEMBL document CHEMBL1961873
